# test-system: Glucocorticoid receptor (Homo sapiens) (UniProt P04150)
# Sequence (P04150 whole entry, looked up): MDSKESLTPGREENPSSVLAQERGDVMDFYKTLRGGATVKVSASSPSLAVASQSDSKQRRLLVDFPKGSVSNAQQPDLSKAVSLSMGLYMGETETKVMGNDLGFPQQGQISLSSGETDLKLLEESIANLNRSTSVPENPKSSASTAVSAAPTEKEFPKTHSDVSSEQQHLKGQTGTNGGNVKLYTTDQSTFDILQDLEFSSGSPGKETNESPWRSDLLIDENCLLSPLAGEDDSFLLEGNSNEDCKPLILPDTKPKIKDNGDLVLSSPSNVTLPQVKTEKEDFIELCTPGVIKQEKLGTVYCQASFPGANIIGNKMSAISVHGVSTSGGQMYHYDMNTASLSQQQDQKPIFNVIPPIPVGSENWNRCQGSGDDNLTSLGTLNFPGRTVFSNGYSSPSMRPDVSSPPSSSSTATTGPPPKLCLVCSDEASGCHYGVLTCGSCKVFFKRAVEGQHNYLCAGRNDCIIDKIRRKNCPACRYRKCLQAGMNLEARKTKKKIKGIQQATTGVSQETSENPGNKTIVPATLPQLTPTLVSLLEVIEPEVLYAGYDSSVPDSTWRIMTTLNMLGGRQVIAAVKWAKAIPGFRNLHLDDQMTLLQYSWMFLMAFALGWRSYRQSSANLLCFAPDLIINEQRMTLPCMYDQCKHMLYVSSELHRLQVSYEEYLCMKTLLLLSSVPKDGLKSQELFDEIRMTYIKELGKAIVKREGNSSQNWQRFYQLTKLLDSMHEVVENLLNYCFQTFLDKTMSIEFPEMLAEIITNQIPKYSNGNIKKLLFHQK
# assay-info: qHTS assay for small molecule antagonists of glucocorticoid receptor signaling (AID 588533);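 further: cells stimulated with 2 nM dexamethasone as agonist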
# measurement-setup: HeLa MMTV-bla, GRE beta-lactamase ratio, antagonist mode, 18 h; series mostly up to 76.8 µM
Results filed as inconclusive are left out. Calls of active or inactive are those of the source. The call rests on the fitted dose curve; in most records, active means well fitted inhibition curve with a large enough effect in the signal ratio, with a control signal flat (not every such curve was filed as active); inconclusive means small, poorly fitted or top-dose-only effect, or effect the other way, or a change in a side signal; inactive means flat fitted curve, though single readings scatter; the % refers to the signal ratio.
Choose the fitting class; nothing outside active, inactive is accepted.

Solved entries (count: 5):
O=C(O)CC(O)(CC(=O)O)C(=O)O; inactive
CCCCCCCC/C=C\CCCCCCCC(=O)OC[C@@H](O)[C@H]1OC[C@H](O)[C@H]1O; inactive
O=S(=O)(c1ccccc1)N(CC(F)(F)F)c1ccc(C(O)(C(F)(F)F)C(F)(F)F)cc1; active
CN(C)Cc1ccccc1; inactive
COC(C)=O; inactive

Pending compound:
Exam item: Test call, this compound: CCCCCCCCCC(=O)O
Marked response: inactive
